molecular target: ENaC (Homo sapiens, UniProt P37088+P51168+P51170); construct: host or cells: primary human bronchial epithelial cells (HBECs), differentiated at an air-liquid interface; assay: Short circuit current assay to determine ENaC blocker potency in human bronchial epithelial cells; type: cell-based; details: 50% inhibition of the total amiloride-sensitive short-circuit current (ISC) in human bronchial epithelial cells (HBECs) at air-liquid interface; apical addition; read-out: Averages · ENaC IC50 (nM) Avg
Sequence (P37088 whole entry): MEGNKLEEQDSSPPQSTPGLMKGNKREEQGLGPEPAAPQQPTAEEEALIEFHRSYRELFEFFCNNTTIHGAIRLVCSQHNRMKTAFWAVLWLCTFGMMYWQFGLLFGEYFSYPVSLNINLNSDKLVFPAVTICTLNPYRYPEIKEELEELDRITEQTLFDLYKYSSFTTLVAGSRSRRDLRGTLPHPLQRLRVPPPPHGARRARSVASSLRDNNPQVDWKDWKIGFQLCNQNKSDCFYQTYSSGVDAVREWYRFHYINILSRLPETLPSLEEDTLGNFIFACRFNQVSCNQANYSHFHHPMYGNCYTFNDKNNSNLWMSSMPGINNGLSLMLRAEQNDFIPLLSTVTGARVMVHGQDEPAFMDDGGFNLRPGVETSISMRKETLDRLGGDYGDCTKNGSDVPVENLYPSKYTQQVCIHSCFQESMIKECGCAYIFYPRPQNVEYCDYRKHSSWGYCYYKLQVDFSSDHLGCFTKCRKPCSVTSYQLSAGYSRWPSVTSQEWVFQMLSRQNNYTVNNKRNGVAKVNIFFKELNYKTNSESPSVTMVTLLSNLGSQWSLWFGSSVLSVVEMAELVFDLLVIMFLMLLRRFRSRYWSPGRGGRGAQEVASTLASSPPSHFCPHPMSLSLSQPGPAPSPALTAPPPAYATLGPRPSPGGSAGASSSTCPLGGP
Sequence (P51168 whole entry): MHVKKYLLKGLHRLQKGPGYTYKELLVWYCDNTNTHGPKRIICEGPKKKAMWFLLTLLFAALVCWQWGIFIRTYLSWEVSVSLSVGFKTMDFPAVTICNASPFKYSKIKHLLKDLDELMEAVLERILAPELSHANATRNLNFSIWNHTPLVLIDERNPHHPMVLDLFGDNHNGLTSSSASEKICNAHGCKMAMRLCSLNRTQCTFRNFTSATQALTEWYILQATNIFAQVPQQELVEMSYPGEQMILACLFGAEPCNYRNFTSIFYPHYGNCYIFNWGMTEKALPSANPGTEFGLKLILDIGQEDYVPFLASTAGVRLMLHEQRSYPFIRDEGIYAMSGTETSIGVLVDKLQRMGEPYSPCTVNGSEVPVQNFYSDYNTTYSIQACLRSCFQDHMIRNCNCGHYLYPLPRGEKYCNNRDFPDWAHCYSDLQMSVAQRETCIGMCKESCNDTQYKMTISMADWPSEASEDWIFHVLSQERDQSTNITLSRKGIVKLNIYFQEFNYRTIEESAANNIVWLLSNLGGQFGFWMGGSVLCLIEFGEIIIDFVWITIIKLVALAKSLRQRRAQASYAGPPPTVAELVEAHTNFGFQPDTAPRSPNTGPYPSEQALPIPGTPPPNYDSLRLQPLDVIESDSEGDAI
Sequence (P51170 whole entry): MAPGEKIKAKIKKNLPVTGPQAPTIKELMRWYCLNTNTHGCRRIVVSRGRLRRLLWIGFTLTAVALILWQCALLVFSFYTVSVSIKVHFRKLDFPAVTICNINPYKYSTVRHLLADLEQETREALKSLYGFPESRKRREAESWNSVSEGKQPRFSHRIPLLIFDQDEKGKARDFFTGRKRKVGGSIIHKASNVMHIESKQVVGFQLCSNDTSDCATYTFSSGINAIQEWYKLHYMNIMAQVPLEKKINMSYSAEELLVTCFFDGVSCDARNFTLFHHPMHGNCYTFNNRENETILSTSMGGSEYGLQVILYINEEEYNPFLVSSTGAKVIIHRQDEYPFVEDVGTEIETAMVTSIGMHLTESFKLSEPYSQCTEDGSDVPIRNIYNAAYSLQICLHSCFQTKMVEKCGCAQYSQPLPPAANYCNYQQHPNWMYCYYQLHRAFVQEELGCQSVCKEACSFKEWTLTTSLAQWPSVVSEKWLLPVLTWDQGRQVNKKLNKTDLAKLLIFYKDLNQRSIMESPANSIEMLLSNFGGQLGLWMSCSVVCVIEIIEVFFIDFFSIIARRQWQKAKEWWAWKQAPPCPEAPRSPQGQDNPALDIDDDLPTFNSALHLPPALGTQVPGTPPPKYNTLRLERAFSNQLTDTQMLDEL
Structures can show the parent of a compound that is named as a salt.
REPORTED_ENDPOINT: IC50 (nM)
Field format: number, assumed nM, no unit text.

COMPOUND	IC50 / nM
CCn1c(CNC(=O)c2nc3cn[nH]c3nc2N)[n+](CC)c2ccc(C(=O)O)cc21 [Example 3]	106
CCn1c(CNC(=O)c2nc3cn[nH]c3nc2N)[n+](CC)c2ccc(C(=O)N3CCC(N(C[C@H](O)[C@@H](O)[C@H](O)[C@H](O)CO)C[C@H](O)[C@@H](O)[C@H](O)[C@H](O)CO)CC3)cc21 [Example 4, trifluoroacetic acid trifluoroacetate]	47
CCn1c(CNC(=O)c2nc3c(C)n[nH]c3nc2N)[n+](CC)c2ccc(OC)cc21 [Example 1, trifluoroacetate]	2

API: the following record is the query input.
Q: Please give the measured IC50 for this compound: CCn1c(CNC(=O)c2nc3c(C)n[nH]c3nc2N)[n+](CC)c2ccc(C(=O)O)cc21 [Example 2, formate]
A: 91.5
